Entry source: patent US5206239A

tested on: α1; experiment: Anti-α1 action: inhibition of norepinephrine-induced tonic contraction of isolated guinea pig thoracic aorta; set-up: species or system guinea pig (Hartley, male); conditions: 10^-7 M test drug, tonic contraction induced by 10^-5 M norepinephrine = 100%, 0.1 µM
For each record, write down the corresponding Anti α1 action (percent contraction, % of Control).

Some solved cases for reference:
CN1CCC(=NOC(=O)c2ccccc2)c2ccn(CCCCN3CCC(C(=O)c4ccc(F)cc4)CC3)c2C1=O : 21.5 % of Control
CN1CCC(=NO)c2ccn(CCCCN3CCC(C(=O)c4ccc(F)cc4)CC3)c2C1=O.Cc1ccc(S(=O)(=O)O)cc1 : 17.1 % of Control
CC(=O)ON=C1CCN(C)C(=O)c2c1ccn2CCCCN1CCC(C(=O)c2ccc(F)cc2)CC1 : 35.5 % of Control
O=C(c1ccc(F)cc1)C1CCN(CCCCn2ccc3c2C(=O)N(Cc2ccccc2)CCC3=NO)CC1 : 10.4 % of Control
CCCN1CCC(=NO)c2ccn(CCCCN3CCC(C(=O)c4ccc(F)cc4)CC3)c2C1=O : 17.9 % of Control
O=C1CCNC(=O)c2c1ccn2CCCCN1CCC(C(=O)c2ccc(F)cc2)CC1 : 28.9 % of Control
O=C1CCN(Cc2ccccc2)C(=O)c2c1ccn2CCCCN1CCC(c2ccccc2)CC1 : 37.7 % of Control
CN1CCC(=O)c2ccn(CCCCN3CCC(C(O)(c4ccc(F)cc4)c4ccc(F)cc4)CC3)c2C1=O : 26.0 % of Control
CN1CCC(=O)c2ccn(CCCCN3CCC(C(=O)c4ccc(F)cc4)CC3)c2C1=O : 20.5 % of Control
CN1CCC(=NO)c2ccn(CCCCN3CCC(c4ccccc4)CC3)c2C1=O : 30.8 % of Control

Kindly give each listed record's Anti α1 action (percent contraction, % of Control).
1. CN1CCC(=NO)c2ccn(CCCCN3CCC(C(=O)c4ccc(F)cc4)CC3)c2C1=O
2. CN1CCC(=NO)c2ccn(CCCCN3CCC(Oc4ccc(F)cc4)CC3)c2C1=O

Reply:
1: 21.4 % of Control; 2: 67.0 % of Control

Observed Anti α1 action (percent contraction, % of Control) on α1, entry CCN1CCC(=NO)c2ccn(CCCCN3CCC(C(=O)c4ccc(F)cc4)CC3)c2C1=O , equals 9.9 % of Control

* * *

Please go through the items and note down their remaining activity at 1 µM.
experiment: Anti-serotonin action (anti-5-HT action): inhibition of serotonin-induced phasic contraction of isolated guinea pig superior mesenteric artery; set-up: species or system guinea pig (Hartley, male); conditions: 10^-6 M test drug, phasic contraction induced by 10^-5 M serotonin = 100%, read-out: Anti 5-HT action (percent contraction, % of Control)
Answers are plain numbers, in %.

Record excerpt, results attached:
CN1CCC(=NO)c2ccn(CCCCN3CCC(C(=O)c4ccc(F)cc4)CC3)c2C1=O : 4.1
CN1CCC(=O)c2ccn(CCCCN3CCC(C(O)(c4ccc(F)cc4)c4ccc(F)cc4)CC3)c2C1=O : 14.7

Reported remaining activity at 1 µM ( O=C1CCNC(=O)c2c1ccn2CCCCN1CCC(C(=O)c2ccc(F)cc2)CC1 ) = 14.3

* * *

system: α1; test: Anti-α1 action: inhibition of norepinephrine-induced tonic contraction of isolated guinea pig thoracic aorta; parameters: species or system guinea pig (Hartley, male); details: 10^-8 M test drug, tonic contraction induced by 10^-5 M norepinephrine = 100%, 0.01 µM
Hi there, I'd appreciate the recorded Anti α1 action (percent contraction, % of Control) for every entry that follows.

CN1CCC(=NO)c2ccn(CCCCN3CCC(C(=O)c4ccc(F)cc4)CC3)c2C1=O [Compound No. 61] : 44.7 % of Control

Give Anti α1 action (percent contraction, % of Control) for each listed item.
1. CN1CCC(=NO)c2ccn(CCCCN3CCC(c4ccccc4)CC3)c2C1=O [Compound No. 51]
2. CN1CCC(=NO)c2ccn(CCCCN3CCC(Oc4ccc(F)cc4)CC3)c2C1=O [Compound No. 84]
3. O=C1CCNC(=O)c2c1ccn2CCCCN1CCC(C(=O)c2ccc(F)cc2)CC1 [Compound No. 81]
4. CCN1CCC(=NO)c2ccn(CCCCN3CCC(C(=O)c4ccc(F)cc4)CC3)c2C1=O [Compound No. 65]
5. CCCN1CCC(=NO)c2ccn(CCCCN3CCC(C(=O)c4ccc(F)cc4)CC3)c2C1=O [Compound No. 75]

Reply:
1: 74.9 % of Control; 2: 86.5 % of Control; 3: 57.5 % of Control; 4: 19.5 % of Control; 5: 37.0 % of Control

Here are 2 compounds. What values of Anti α1 action (percent contraction, % of Control) were reported for them?
1. CC(=O)ON=C1CCN(C)C(=O)c2c1ccn2CCCCN1CCC(C(=O)c2ccc(F)cc2)CC1 [Compound No. 91]
2. O=C(c1ccc(F)cc1)C1CCN(CCCCn2ccc3c2C(=O)N(Cc2ccccc2)CCC3=NO)CC1 [Compound No. 66]

Reply:
["58.2 % of Control", "19.3 % of Control"]

* * *

Experiment: Anti-serotonin action (anti-5-HT action): inhibition of serotonin-induced phasic contraction of isolated guinea pig superior mesenteric artery
Parameters: species or system guinea pig (Hartley, male)
Conditions: 10^-7 M test drug, phasic contraction induced by 10^-5 M serotonin = 100%, read-out: Anti 5-HT action (percent contraction, % of Control)
Description: With respect to the compounds of the present invention, their anti-α1 action and anti-serotonin action were investigated by the testing methods which will be described below. Taking the phasic contraction induced by 10^-5 M serotonin as 100%, the percent contractions in the presence of each test drug at 10^-7 and 10^-6 M were determined as anti-5-HT action.
Consider the cut-off 50%. If the recorded remaining activity at 0.1 µM is strictly smaller, the label is Satisfied; if not, the label is Not satisfied.

CN1CCC(=O)c2ccn(CCCCN3CCC(C(O)(c4ccc(F)cc4)c4ccc(F)cc4)CC3)c2C1=O : Not satisfied
CC(=O)ON=C1CCN(C)C(=O)c2c1ccn2CCCCN1CCC(C(=O)c2ccc(F)cc2)CC1 : Satisfied
CN1CCC(=NO)c2ccn(CCCCN3CCC(c4ccccc4)CC3)c2C1=O : Not satisfied
CN1CCC(=NO)c2ccn(CCCCN3CCC(Oc4ccc(F)cc4)CC3)c2C1=O : Not satisfied
O=C(c1ccc(F)cc1)C1CCN(CCCCn2ccc3c2C(=O)N(Cc2ccccc2)CCC3=NO)CC1 : Not satisfied

Task item: Threshold test, remaining activity at 0.1 µM < 50%: CN1CCC(=NO)c2ccn(CCCCN3CCC(C(=O)c4ccc(F)cc4)CC3)c2C1=O
Reply: Satisfied

Task item: Given the entry O=C1CCN(Cc2ccccc2)C(=O)c2c1ccn2CCCCN1CCC(c2ccccc2)CC1 , would its reported remaining activity at 0.1 µM be below 50%?
Reply: Not satisfied

* * *

assay: Anti-serotonin action (anti-5-HT action): inhibition of serotonin-induced phasic contraction of isolated guinea pig superior mesenteric artery; design: species or system guinea pig (Hartley, male); details: 10^-7 M test drug, phasic contraction induced by 10^-5 M serotonin = 100%, read-out: Anti 5-HT action (percent contraction, % of Control)
observed.property: remaining activity at 0.1 µM (%)
Give bare numbers, in %.

CCCN1CCC(=NO)c2ccn(CCCCN3CCC(C(=O)c4ccc(F)cc4)CC3)c2C1=O : 12.9

Below are 2 compounds. Give each one its remaining activity at 0.1 µM.
1. CCN1CCC(=NO)c2ccn(CCCCN3CCC(C(=O)c4ccc(F)cc4)CC3)c2C1=O
2. O=C1CCNC(=O)c2c1ccn2CCCCN1CCC(C(=O)c2ccc(F)cc2)CC1

Reply:
1: 19.9; 2: 57.1

* * *

experiment: Anti-serotonin action (anti-5-HT action): inhibition of serotonin-induced phasic contraction of isolated guinea pig superior mesenteric artery; parameters: species or system guinea pig (Hartley, male); details: 10^-6 M test drug, phasic contraction induced by 10^-5 M serotonin = 100%, read-out: Anti 5-HT action (percent contraction, % of Control)
Criterion: remaining activity at 1 µM strictly under 10%. Met: 1 (yes). Not met: 0 (no).

O=C1CCN(Cc2ccccc2)C(=O)c2c1ccn2CCCCN1CCC(c2ccccc2)CC1 : 0 (no)
CCCN1CCC(=NO)c2ccn(CCCCN3CCC(C(=O)c4ccc(F)cc4)CC3)c2C1=O : 1 (yes)
CCN1CCC(=NO)c2ccn(CCCCN3CCC(C(=O)c4ccc(F)cc4)CC3)c2C1=O : 1 (yes)
CN1CCC(=NOC(=O)c2ccccc2)c2ccn(CCCCN3CCC(C(=O)c4ccc(F)cc4)CC3)c2C1=O : 0 (no)
CN1CCC(=NO)c2ccn(CCCCN3CCC(Oc4ccc(F)cc4)CC3)c2C1=O : 1 (yes)

Task item: Report whether reported remaining activity at 1 µM is lower than 10% (strictly) for O=C(c1ccc(F)cc1)C1CCN(CCCCn2ccc3c2C(=O)N(Cc2ccccc2)CCC3=NO)CC1
Reply: 1 (yes)

Task item: hey, is remaining activity at 1 µM for CC(=O)ON=C1CCN(C)C(=O)c2c1ccn2CCCCN1CCC(C(=O)c2ccc(F)cc2)CC1 lower than 10% or not?
Reply: 0 (no)

Task item: Does CN1CCC(=NO)c2ccn(CCCCN3CCC(c4ccccc4)CC3)c2C1=O have remaining activity at 1 µM strictly under 10%?
Reply: 0 (no)
